Each recorded value in this set is attributed to ChEMBL document CHEMBL1944597.

IC50 values by entry
Target: Urokinase-type plasminogen activator (Homo sapiens)
Test: Inhibition of human uPA using pyroGlu-Gly-Arg-p-NA.HCl as substrate preincubated for 15 mins prior substrate addition measured for 10 mins by spectrophotometry

Here's what some known entries look like.
Look up IC50: `COC(=O)c1cccc(-c2ccc(NC(=O)c3ccc4cc(C(N)=O)ccc4c3)cc2)c1`
3.6 µM

Look up IC50: `O=C(Nc1ccccc1)c1ccc2ccccc2c1`
> 62 µM

Look up IC50: `COC(=O)c1cccc(-c2ccc(NC(=O)c3ccc4ccccc4c3)cc2)c1`
16 µM

Look up IC50: `COc1ccc(-c2ccc(NC(=O)c3ccc4cc(OC)ccc4c3)cc2)cc1`
12 µM

Look up IC50: `COc1cccc(-c2ccc(NC(=O)c3ccc4cc(OC)ccc4c3)cc2)c1`
4 µM

---
Look up IC50: `COc1ccc(-c2ccc(NC(=O)c3ccc4cc(OC)ccc4c3)cc2OC)cc1`
> 31 µM

Look up IC50: `COc1ccc2cc(S(=O)(=O)Nc3ccc(-c4cccc([N+](=O)[O-])c4)cc3)ccc2c1`
6.9 µM

Look up IC50: `COc1cc(NC(=O)c2ccc3cc(C(N)=O)ccc3c2)cc(OC)c1`
30 µM

Look up IC50: `NC(=O)c1ccc2cc(C(=O)Nc3ccc(-c4cccc(Cl)c4)cc3)ccc2c1`
8.1 µM

Look up IC50: `COC(=O)c1cccc(-c2ccc(NC(=O)c3ccc4cc(N)ccc4c3)cc2)c1`
31 µM

Look up IC50: `COC(=O)c1cccc(-c2ccc(NC(=O)c3ccc4cc(OC)ccc4c3)cc2)c1`
4 µM
